Values compiled from patent US6436960B1.

- systemUnderTest: Ras farnesyl transferase (Homo sapiens, UniProt P49354+P49356)
- Construct: made in house
- experimentDescription: in vitro inhibitory activity for Ras farnesyl transferase, K-Ras substrate
- Type: biochemical
- conditionNotes: recombinant Ras farnesyl transferase, K-Ras substrate; read-out: K-Ras IC50
- Source text: In the present experiment, Ras farnesyl transferase produced by genetic recombination techniques according to the improved Pompliano's method (Pompliano et al., Biochemistry, 1992, 31, 3800) was used, […] Appln. No. 97-14409 was used after it has been purified according to the known method(see, Chung et al., Biochimica et Biophysica Acta, 1992, 278, 1129). […]
metricName: log10(IC50) (log10 of the value in µM)

smilestext=COCCN(C)C(=O)c1cn(Cc2cncn2CC2CCN(C(=O)OCc3cccc4ccccc34)CC2)cc1-c1cccc2ccccc12 reported=-1.70
smilestext=COCCN(C)C(=O)c1cn(Cc2cncn2CC2CCN(C(=O)OCc3ccc(F)cc3)CC2)cc1-c1cccc2ccccc12 reported=-1.82
smilestext=CN1CCN(C(=O)c2cn(Cc3cncn3CC3CCN(C(=O)/C=C/c4ccccc4)CC3)cc2-c2cccc3ccccc23)CC1 reported=-2.10
smilestext=CN(C)CCN(C)C(=O)c1cn(Cc2cncn2CC2CCN(C(=O)OCc3ccccc3)CC2)cc1-c1cccc2ccccc12 reported=0.18
smilestext=CN1CCN(C(=O)c2cn(Cc3cncn3CC3CCN(C(=O)OC/C=C/c4ccccc4)CC3)cc2-c2cccc3ccccc23)CC1 reported=-2.15
smilestext=COC(=O)N1CCC(Cn2cncc2Cn2cc(C(=O)N3CCN(C)CC3)c(-c3cccc4ccccc34)c2)CC1 reported=-2.38

---

# pIC50 per entry
- systemUnderTest: Ras farnesyl transferase (Homo sapiens, UniProt P49354+P49356)
- Construct: made in house
- experimentDescription: in vitro inhibitory activity for Ras farnesyl transferase, K-Ras substrate
- Format: biochemical
pIC50: −log10 of the molar value.
metricName: pIC50

compound="O=C(c1ccn(Cc2cncn2CC2CCN(C(=O)OCc3ccccc3)CC2)c1)c1cccc2ccccc12 [Compound 36]" systemundertest="Ras farnesyl transferase (Homo sapiens, UniProt P49354+P49356)" metricname=pIC50 reported="< 4.00"
compound="CC(=O)N1CCC(Cn2cncc2Cn2ccc(C(=O)c3cccc4ccccc34)c2)CC1 [Compound 37]" systemundertest="Ras farnesyl transferase (Homo sapiens, UniProt P49354+P49356)" metricname=pIC50 reported="4.00 to 5.00"

---

Below: a set of entries, each annotated with reported pIC50.
- systemUnderTest: Ras farnesyl transferase (Homo sapiens, UniProt P49354+P49356)
- Construct: made in house
- experimentDescription: in vitro inhibitory activity for Ras farnesyl transferase, K-Ras substrate
- Type: biochemical
- conditionNotes: recombinant Ras farnesyl transferase, K-Ras substrate; read-out: K-Ras IC50
pIC50: −log10 of the molar value.
metricName: pIC50

compound="CC(=O)N1CCC(Cn2cncc2Cn2cc(C(=O)N3CCN(C)CC3)c(-c3cccc4ccccc34)c2)CC1 [Compound 42]" metricname=pIC50 reported=8.22
compound="CN1CCN(C(=O)c2cn(Cc3cncn3CC3CCN(Cc4ccc(-c5ccccc5)cc4)CC3)cc2-c2cccc3ccccc23)CC1 [Compound 56]" metricname=pIC50 reported=7.70
compound="CN1CCN(C(=O)c2cn(Cc3cncn3CC3CCN(C(=O)N(C)Cc4ccccc4)CC3)cc2-c2cccc3ccccc23)CC1 [Compound 52]" metricname=pIC50 reported=8.00

---

- systemUnderTest: Ras farnesyl transferase (Rattus norvegicus, UniProt Q02293+Q04631)
- Construct: endogenous in cells; host or cells: Rat2 fibroblasts transformed with C-Harvey-Ras, or with H-Ras carrying the K-Ras C-terminal polybasic lysine domain
- experimentDescription: in vivo (cellular) Ras farnesyl transferase inhibitory activity, Rat2 cells expressing C-Harvey-Ras
- Type: cell-based
- conditionNotes: Rat2 cell line expressing C-Harvey-Ras; concentration inhibiting 50% of farnesyl binding of Ras protein; read-out: H-Ras CIC50
pIC50: −log10 of the molar value.
Overview of recorded pIC50 for various compounds
metricName: pIC50

smilestext=CN1CCN(C(=O)c2cn(Cc3cncn3CC3CCN(C(=O)N4CCCc5ccccc54)CC3)cc2-c2cccc3ccccc23)CC1 metricname=pIC50 reported=7.60
smilestext=CN1CCN(C(=O)c2cn(Cc3cncn3CC3CCN(C(=O)CCc4ccccc4)CC3)cc2-c2cccc3ccccc23)CC1 metricname=pIC50 reported=7.30
smilestext=CN1CCN(C(=O)c2cn(Cc3cncn3CC3CCN(C(=O)OCc4ccc5ccccc5c4)CC3)cc2-c2cccc3ccccc23)CC1 metricname=pIC50 reported=7.46
smilestext=COC(=O)N1CCC(Cn2cncc2Cn2cc(C(=O)N3CCN(C)CC3)c(-c3cccc4ccccc34)c2)CC1 metricname=pIC50 reported=7.52
smilestext=CC(C)CCOC(=O)N1CCC(Cn2cncc2Cn2cc(C(=O)N3CCN(C)CC3)c(-c3cccc4ccccc34)c2)CC1 metricname=pIC50 reported=7.60
smilestext=O=C(OCc1ccccc1)N1CCC(Cn2cncc2Cn2cc(C(=O)N3CCOCC3)c(-c3cccc4ccccc34)c2)CC1 metricname=pIC50 reported=7.00
smilestext=O=C(c1cn(Cc2cncn2CC2CCNCC2)cc1-c1cccc2ccccc12)N1CCOCC1 metricname=pIC50 reported=7.00
smilestext=CC(=O)N1CCC(Cn2cncc2Cn2cc(C(=O)N3CCN(C)CC3)c(-c3cccc4ccccc34)c2)CC1 metricname=pIC50 reported=7.60
smilestext=CN1CCN(C(=O)c2cn(Cc3cncn3CC3CCN(Cc4ccc(Oc5ccccc5)cc4)CC3)cc2-c2cccc3ccccc23)CC1 metricname=pIC50 reported=7.60

---

Items are presented alongside their recorded pIC50.
- systemUnderTest: Ras farnesyl transferase (Homo sapiens, UniProt P49354+P49356)
- Construct: made in house
- experimentDescription: in vitro inhibitory activity for Ras farnesyl transferase, H-Ras substrate
- Assay type: biochemical
- conditionNotes: recombinant Ras farnesyl transferase, H-Ras substrate, tritium-farnesylpyrophosphate, 30 minutes at 37° C.; read-out: H-Ras IC50
pIC50: −log10 of the molar value.
metricName: pIC50

smilestext=CN1CCN(C(=O)c2cn(Cc3cncn3CC3CCN(C(=O)/C=C/c4ccccc4)CC3)cc2-c2cccc3ccccc23)CC1 metricname=pIC50 reported=8.77
smilestext=CN1CCN(C(=O)c2cn(Cc3cncn3CC3CCN(C(=O)N(C)C)CC3)cc2-c2cccc3ccccc23)CC1 metricname=pIC50 reported=8.52
smilestext=COCCN(C)C(=O)c1cn(Cc2cncn2CC2CCN(C(=O)c3csc(C(C)C)n3)CC2)cc1-c1cccc2ccccc12 metricname=pIC50 reported=8.60
smilestext=CN1CCN(C(=O)c2cn(Cc3cncn3CC3CCN(S(C)(=O)=O)CC3)cc2-c2cccc3ccccc23)CC1 metricname=pIC50 reported=8.52
smilestext=CC(=O)N1CCC(Cn2cncc2Cn2cc(C(=O)N3CCOCC3)c(-c3cccc4ccccc34)c2)CC1 metricname=pIC50 reported=9.00
smilestext=CC(C)CCOC(=O)N1CCC(Cn2cncc2Cn2cc(C(=O)N3CCN(C)CC3)c(-c3cccc4ccccc34)c2)CC1 metricname=pIC50 reported=8.66
smilestext=CN1CCN(C(=O)c2cn(Cc3cncn3CC3CCN(C(=O)N4CCCc5ccccc54)CC3)cc2-c2cccc3ccccc23)CC1 metricname=pIC50 reported=7.96
smilestext=CN1CCN(C(=O)c2cn(Cc3cncn3CC3CCN(Cc4ccc(Oc5ccccc5)cc4)CC3)cc2-c2cccc3ccccc23)CC1 metricname=pIC50 reported=7.96
smilestext=COCCN(C)C(=O)c1cn(Cc2cncn2CC2CCN(C(=O)OCc3cccc4ccccc34)CC2)cc1-c1cccc2ccccc12 metricname=pIC50 reported=8.15
smilestext=COCCN(C)C(=O)c1cn(Cc2cncn2CC2CCN(C(=O)OCc3ccccc3)CC2)cc1-c1cccc2ccccc12 metricname=pIC50 reported=8.60
smilestext=COCCN(C)C(=O)c1cn(Cc2cncn2CC2CCN(C(=O)N3CCCc4ccccc43)CC2)cc1-c1cccc2ccccc12 metricname=pIC50 reported=8.40
smilestext=CS(=O)(=O)N1CCC(Cn2cncc2Cn2cc(C(=O)N3CCOCC3)c(-c3cccc4ccccc34)c2)CC1 metricname=pIC50 reported=8.44
smilestext=COCCN(C)C(=O)c1cn(Cc2cncn2CC2CCN(S(C)(=O)=O)CC2)cc1-c1cccc2ccccc12 metricname=pIC50 reported=8.92
smilestext=CN1CCN(C(=O)c2cn(Cc3cncn3CC3CCN(C(=O)OCc4ccc5ccccc5c4)CC3)cc2-c2cccc3ccccc23)CC1 metricname=pIC50 reported=8.74
smilestext=COCCN(C)C(=O)c1cn(Cc2cncn2CC2CCN(C(=O)OCc3ccc(F)cc3)CC2)cc1-c1cccc2ccccc12 metricname=pIC50 reported=8.22
smilestext=COCCN(C)C(=O)c1cn(Cc2cncn2CC2CCN(C(=O)OCCC(C)C)CC2)cc1-c1cccc2ccccc12 metricname=pIC50 reported=8.10
smilestext=COCCN(C)C(=O)c1cn(Cc2cncn2CC2CCN(C(=O)OCC(C)C)CC2)cc1-c1cccc2ccccc12 metricname=pIC50 reported=8.22
smilestext=CN1CCN(C(=O)c2cn(Cc3cncn3CC3CCN(Cc4ccc(-c5ccccc5)cc4)CC3)cc2-c2cccc3ccccc23)CC1 metricname=pIC50 reported=8.30
smilestext=COCCN(C)C(=O)c1cn(Cc2cncn2CC2CCN(C(=O)OCC=C(C)C)CC2)cc1-c1cccc2ccccc12 metricname=pIC50 reported=8.05
smilestext=COCCN(C)C(=O)c1cn(Cc2cncn2CC2CCN(C(C)=O)CC2)cc1-c1cccc2ccccc12 metricname=pIC50 reported=8.74
smilestext=COCCN(C)C(=O)c1cn(Cc2cncn2CC2CCN(C(=O)OC/C=C/c3ccccc3)CC2)cc1-c1cccc2ccccc12 metricname=pIC50 reported=8.22
smilestext=CN1CCN(C(=O)c2cn(Cc3cncn3CC3CCN(C(=O)COc4ccccc4)CC3)cc2-c2cccc3ccccc23)CC1 metricname=pIC50 reported=8.70
smilestext=CN1CCN(C(=O)c2cn(Cc3cncn3CC3CCN(C(=O)OC/C=C/c4ccccc4)CC3)cc2-c2cccc3ccccc23)CC1 metricname=pIC50 reported=8.48
smilestext=O=C(c1cn(Cc2cncn2CC2CCNCC2)cc1-c1cccc2ccccc12)N1CCOCC1 metricname=pIC50 reported=8.05
